Target: T1, TAMRA-labeled effector peptide cs221B (5(6)-TAMRA label coupled on resin after synthesis)
T1 construct: also called TAMRA-cs221B
T1 peptide: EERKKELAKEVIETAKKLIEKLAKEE
Test: fluorescence polarization titration; TAMRA-peptide constant, hinge varied
Observation Type: Kd (nM)
I only need the number, in nM, no unit after it.

Return reported Kd; argument: cs221_V111L (designed binder, Point mutant of hinge cs221) MSGEMKEEIRRLAEELRERTKDEEVRELAREAARLAEESDDEEVKEVVKKALEAALKSKDEEVIRLLLLAAVLAAAAARSGSPEEKLEIAKKALELAMKSKDEEVIRLALLAALLAARSDDEEVLKKVKEALEKAMESKDVEEIRERLREAVEVARAGSGSHHWGSTHHHHHH 0.3
